biological target: AHNAK1, Q09666; assay: holdup assay; set-up: key: below the threshold = too weak to quantify, mostly under pKd 3.1 to 4; conditions: plain residues with an end cap or a label only (N-terminal biotin on a linker: ahx)

[
  {
    "binder": "LSDPSVSTVV [GRIN1, Q05586;Q05586-2]",
    "pKd": "below the threshold"
  },
  {
    "binder": "ESLLLGPSNF [SHROOM4, Q9ULL8]",
    "pKd": "below the threshold"
  },
  {
    "binder": "SDSSGQEYSL [KCTD3, Q9Y597]",
    "pKd": "below the threshold"
  },
  {
    "binder": "GYDWGPATDL [TJP3, O95049]",
    "pKd": "below the threshold"
  },
  {
    "binder": "TVICWPGSLV [LNX2, Q8N448]",
    "pKd": "below the threshold"
  },
  {
    "binder": "RAVEEEESRF [PSCDBP, O60759]",
    "pKd": "below the threshold"
  },
  {
    "binder": "HNAFLSVTTV [PDZRN4, Q6ZMN7]",
    "pKd": 3.7
  },
  {
    "binder": "RRRKRKRTYL [HPV49-L2, P36762]",
    "pKd": 3.56
  },
  {
    "binder": "PSASCAVTAA [PDLIM4, P50479;P50479-2]",
    "pKd": "below the threshold"
  },
  {
    "binder": "NRKREIFSNF [NHERF2, Q15599]",
    "pKd": "below the threshold"
  }
]
